Values were extracted from ChEMBL document CHEMBL5131570.

molecular target: Ubiquitin carboxyl-terminal hydrolase 8 (Homo sapiens); assay: Inhibition of human full length USP8 overexpressed in baculovirus-infected insect cells using ubiquitin-C-terminal 7-amido-4-methylcoumarin as substrate by fluorescence spectroscopy
Sequence (P40818 whole entry): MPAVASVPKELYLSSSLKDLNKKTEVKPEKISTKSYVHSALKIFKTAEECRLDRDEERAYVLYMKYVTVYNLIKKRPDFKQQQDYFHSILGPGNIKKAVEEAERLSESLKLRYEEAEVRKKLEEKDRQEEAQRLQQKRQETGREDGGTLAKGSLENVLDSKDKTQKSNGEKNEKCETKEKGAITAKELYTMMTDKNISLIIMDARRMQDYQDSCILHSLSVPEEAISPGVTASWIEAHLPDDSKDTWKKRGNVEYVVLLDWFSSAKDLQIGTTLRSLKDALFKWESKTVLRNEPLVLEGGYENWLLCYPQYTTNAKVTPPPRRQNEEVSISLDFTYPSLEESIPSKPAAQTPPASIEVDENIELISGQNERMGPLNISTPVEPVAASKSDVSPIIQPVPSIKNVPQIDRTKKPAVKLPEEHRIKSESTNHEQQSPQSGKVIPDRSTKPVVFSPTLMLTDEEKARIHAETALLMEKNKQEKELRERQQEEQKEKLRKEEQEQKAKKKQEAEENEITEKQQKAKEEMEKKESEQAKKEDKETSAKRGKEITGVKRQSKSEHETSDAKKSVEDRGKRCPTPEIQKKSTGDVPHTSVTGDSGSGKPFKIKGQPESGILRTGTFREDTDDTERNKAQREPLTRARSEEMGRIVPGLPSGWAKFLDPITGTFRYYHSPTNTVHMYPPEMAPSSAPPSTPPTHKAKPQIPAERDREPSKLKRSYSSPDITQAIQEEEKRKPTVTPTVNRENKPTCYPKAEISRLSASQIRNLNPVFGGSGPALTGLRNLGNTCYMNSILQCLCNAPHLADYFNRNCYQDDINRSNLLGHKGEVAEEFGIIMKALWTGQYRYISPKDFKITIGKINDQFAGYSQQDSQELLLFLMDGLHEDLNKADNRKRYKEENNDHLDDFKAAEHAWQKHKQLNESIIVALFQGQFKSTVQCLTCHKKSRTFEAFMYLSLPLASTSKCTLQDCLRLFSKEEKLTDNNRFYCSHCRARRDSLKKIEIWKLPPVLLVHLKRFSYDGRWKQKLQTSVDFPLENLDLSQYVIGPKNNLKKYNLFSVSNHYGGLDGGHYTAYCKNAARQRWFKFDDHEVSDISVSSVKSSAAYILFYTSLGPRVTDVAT
Items are presented alongside their recorded pIC50.
Keep in mind that pIC50 stands for -log10 of concentration in molar terms.

Use the examples below as a reference point.
{"line.notation": "N#Cc1nc2c(nc1C#N)-c1ccccc1/C2=N\\OCc1ccccc1", "pIC50": 6.07}
{"line.notation": "C=CCO/N=C1\\c2ccccc2-c2nc(C#N)c(C#N)nc21", "pIC50": 6.25}

Q) Endpoint output: pIC50 of N#Cc1cc2c(cc1C#N)-c1ccccc1C2=O . Value?
A) 6.54
